This collection of values is drawn from paper PMC6736568.

Tested on: HCT-8 host cells (Hs18S)
Conditions: primary screening at 10 uM, from Hs18S ΔCT

COMPOUND | Cytotoxicity (%)
CC(C)CCC[C@@H](C)[C@H]1CC[C@H]2[C@@H]3CC[C@H]4C[C@@H](O)CC[C@]4(C)[C@H]3CC[C@]12C | -2.4
CNCC(=O)c1ccc(O)c(O)c1.Cl [ADRENOLONE HYDROCHLORIDE] | -16.6
COc1ccc(/C=C/C(=O)c2ccc(O)cc2O)cc1 [2',4'-DIHYDROXY-4-METHOXYCHALCONE] | -99.8
COC(=O)C1=CO[C@@H](O[C@@H]2O[C@H](CO)[C@@H](O)[C@H](O)[C@H]2O)[C@H]2[C@@H]1C(=O)C[C@@H]2C | 81.7
C[C@H](CC(=O)[C@@H]1OC1(C)C)[C@H]1C(=O)C[C@@]2(C)C3=CC[C@H]4C(C)(C)[C@@H](O[C@@H]5OC[C@@H](O)[C@H](O)[C@H]5O)CC[C@@]45C[C@@]35[C@@H](O)C[C@]12C [CIMICIFUGOSIDE H1] | 69.4

----------
Examples of molecules with documented cytotoxicity at 10 µM follow.
Experiment: in vitro

MOLECULE | UNIT OF MEASURE | cytotoxicity at 10 µM
CC(C)=CCC/C(C)=C/COc1ccc2ccc(=O)oc2c1 | % | 1.2
C[C@@H]1O[C@@H](O[C@@H]2C=C3CC[C@@H]4[C@H](CC[C@]5(C)[C@@H](c6ccc(=O)oc6)CC[C@]45O)[C@@]3(C)CC2)[C@H](O)[C@H](O)[C@H]1O [PROSCILLARIDIN] | % | 100
C[C@H]1C(=O)CC[C@@H]2[C@]1(C)CC[C@H]1[C@@]2(C)CC[C@@]2(C)[C@@H]3CC(C)(C)CC[C@]3(C)CC[C@]12C [FRIEDELIN] | % | -17.6
C=CCc1ccc(OC)cc1 [ESTRAGOLE] | % | -16.6
NCCc1c[nH]c2ccccc12 [TRYPTAMINE] | % | -34.7
C[C@H]1CC[C@]2(NC1)O[C@H]1C[C@H]3[C@@H]4CC[C@H]5C[C@@H](O[C@@H]6O[C@H](CO)[C@H](O[C@@H]7O[C@H](CO)[C@@H](O)[C@H](O[C@@H]8OC[C@@H](O)[C@H](O)[C@H]8O)[C@H]7O[C@@H]7O[C@H](CO)[C@@H](O)[C@H](O)[C@H]7O)[C@H](O)[C@H]6O)CC[C@]5(C)[C@H]4CC[C@]3(C)[C@H]1[C@@H]2C [TOMATINE] | % | 2.7
C[C@H]1COC2=C1C(=O)C(=O)c1c2ccc2c1CCCC2(C)C [CRYPTOTANSHINONE] | % | 11.9
CC(=O)c1c(O)c(C)c(O)c2c1OC1=CC(=O)C(C(C)=O)C(=O)C12C (stereo not drawn) [USNIC ACID] | % | -23.9
COc1cc2c(cc1OC)[C@@H]1C(=O)c3ccc(OC)c(CC=C(C)C)c3O[C@@H]1CO2 [ROTENONIC ACID, METHYL ETHER] | % | 18.7

----------
System: HCT-8 host cells (Hs18S)
Conditions: 10 µM
Field: label. Allowed values: rule met (Cytotoxicity (%) < 10) or rule not met (Cytotoxicity (%) >= 10).

COMPOUND | MEASURED ON | LABEL VALUE
C[C@@H](N)[C@@H](O)c1ccccc1 | HCT-8 host cells (Hs18S) | rule met
CC[C@H](C=C[C@@H](C)[C@H]1CC[C@H]2[C@@H]3CCC4=CC(=O)CC[C@]4(C)[C@H]3CC[C@]12C)C(C)C | HCT-8 host cells (Hs18S) | rule not met
COc1cc2oc3cc(OC)c(OC)c(CC=C(C)C)c3c(=O)c2c(OC)c1CC=C(C)C | HCT-8 host cells (Hs18S) | rule met
Cl.c1ccc2c(c1)CN1CCCC1=N2 [DEOXYPEGANINE HYDROCHLORIDE] | HCT-8 host cells (Hs18S) | rule met
C[C@H]1CC[C@@H](C(C)(C)O)CC2=C1CC[C@@H]2C [GUAIOL(-)] | HCT-8 host cells (Hs18S) | rule not met
NCCc1ccc(O)c(O)c1 [3-HYDROXYTYRAMINE] | HCT-8 host cells (Hs18S) | rule not met

----------
Assay: in vitro
Conditions: human
Examples of molecules with documented cytotoxicity at 41 h, 10 µM follow.
RESULT TYPE: cytotoxicity at 41 h, 10 µM (%)

MOLECULE | UNIT OF MEASURE | MEASURED VALUE
OC[C@@H](O)[C@@H](O[C@@H]1O[C@H](CO)[C@@H](O)[C@H](O)[C@H]1O)[C@H](O)[C@@H](O)CO [GLUCITOL-4-GUCOPYANOSIDE] | % | -14.4
COC(=O)C(O)c1ccccc1 (centres unmarked) | % | 19.1
C=C[C@@H](C1=CC(=O)C(OC)=C(OC)C1=O)c1ccccc1 | % | 3.8
CN1CC(=O)NC1=N | % | 0.2
Nc1ncnc2nc[nH]c12 | % | -5.9

----------
Experiment: in vitro
Counter-ions that a name gives are not always drawn. *1 amine or outer side, *2 acyl side, *3 side chain or, on linkers, in order; H or OH if unused. Where a SMILES comes first, the peptide text is derived from it. Bridges are numbered along the chain shown (N, C = ends). Roman numbers before positions name the chains, in order. [ ]: non-standard residue; d: D form. Actinocin(9to1) = Cc1c2oc3c(C)ccc(C(=O)[*:1])c3nc-2c(C(=O)[*:2])c(N)c1=O; NMeV = CN[C@H](C(=O)O)C(C)C; Sar = CNCC(=O)O
RESULT TYPE: cytotoxicity at 10 µM (%)

MOLECULE | MEASURED VALUE
COc1ccc2c(c1)O[C@@H]1COc3cc(OC)c(OC)cc3[C@@H]1C2=O | 11.4
O=C1c2ccccc2C(=O)c2c1ccc(O)c2O | -9.1
COc1cc2c(cc1OC)[C@@]13CCN4CC5=CCO[C@H]6CC(=O)N2[C@H]1[C@H]6[C@H]5C[C@H]43 | -8.2
NCCc1c[nH]c2ccc(O)cc12 [SEROTONIN HYDROCHLORIDE] | -31.7
Cc1c[nH]cn1 | 11.5
COc1cc(C(=O)O)cc(OC)c1O | -20
O=C(/C=C/C=C/c1ccc2c(c1)OCO2)N1CCCCC1 | 2.1
Cc1c2oc3c(C)ccc(C(=O)N[C@@H]4C(=O)N[C@H](C(C)C)C(=O)N5CCC[C@H]5C(=O)N(C)CC(=O)N(C)[C@@H](C(C)C)C(=O)O[C@@H]4C)c3nc-2c(C(=O)N[C@@H]2C(=O)N[C@H](C(C)C)C(=O)N3CCC[C@H]3C(=O)N(C)CC(=O)N(C)[C@@H](C(C)C)C(=O)O[C@@H]2C)c(N)c1=O [Dactinomycin, reference compound] (I: T[dV]P[Sar][NMeV] / II: T[dV]P[Sar][NMeV]; ester I:1-I:C, II:1-II:C; linker I:N-II:N via Actinocin(9to1)) | 64.6
C[C@@H]1CC[C@@]2(OC1)O[C@H]1[C@@H](O)[C@H]3[C@@H]4CC[C@H]5C[C@@H](O[C@@H]6O[C@H](CO)[C@H](O[C@@H]7O[C@H](CO)[C@@H](O)[C@H](O[C@@H]8OC[C@@H](O)[C@H](O)[C@H]8O)[C@H]7O[C@@H]7O[C@H](CO)[C@H](O)[C@H](O[C@@H]8O[C@H](CO)[C@@H](O)[C@H](O)[C@H]8O)[C@H]7O)[C@H](O)[C@H]6O)[C@H](O)C[C@]5(C)[C@H]4CC[C@]3(C)[C@H]1[C@@H]2C | -8.8
C=C(C)[C@H]1CN[C@H](C(=O)O)[C@H]1CC(=O)O | -2.6
Cc1cc(O)cc(=O)o1 | 3.1
Cn1c(=O)c2[nH]cnc2n(C)c1=O | -22.6
CCCCCCCCCc1ccc(O)cc1 | 9.2
C=C[C@@](C)(O)CCC=C(C)C [LINALOOL (+)] | 6.1
C[C@@]12C(=O)OC(=O)[C@]1(C)[C@H]1CC[C@@H]2O1 | 99.4
COc1cc2ccc(=O)oc2c(OC)c1OC | -39.5
COc1ccc2c(c1)O[C@H]1c3ccc(OC)cc3OC[C@@H]21 | -0.7
C[C@@H]1CC[C@@]2(NC1)O[C@H]1C[C@H]3[C@@H]4CC=C5C[C@@H](O)CC[C@]5(C)[C@H]4CC[C@]3(C)[C@H]1[C@@H]2C | 4.6
Cc1nccc2c1[nH]c1ccccc12 | 4.5
O=C(Oc1cc(O)cc2c1C[C@@H](OC(=O)c1cc(O)c(O)c(O)c1)[C@@H](c1cc(O)c(O)c(O)c1)O2)c1cc(O)c(O)c(O)c1 [EPIGALLOCATECHIN 3,5-DIGALLATE] | -17.5
